All values here come from patent US20240083861A1.

- Measured on: Recombinant human HSD17B13 enzyme (Homo sapiens)
- Sequence (Q7Z5P4 20-300): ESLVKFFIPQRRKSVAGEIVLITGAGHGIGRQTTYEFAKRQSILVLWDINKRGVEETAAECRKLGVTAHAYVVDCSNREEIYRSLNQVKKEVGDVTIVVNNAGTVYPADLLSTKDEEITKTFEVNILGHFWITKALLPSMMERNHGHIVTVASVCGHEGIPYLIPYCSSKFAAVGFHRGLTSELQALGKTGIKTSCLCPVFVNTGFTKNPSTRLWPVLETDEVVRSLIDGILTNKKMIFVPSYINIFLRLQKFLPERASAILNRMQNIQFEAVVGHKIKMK
- Protocol description: HSD17b13 NAD(P)H-Glo biochemical assay
- Recorded conditions: 50 uM estradiol, 1 mM NAD+, NAD(P)H-Glo luminescence; read-out: HSD17β13 IC50
pIC50: −log10 of the molar value.
Value type: pIC50

[
  {
    "Molecule": "Cn1nc(-c2cc(C(F)(F)F)c(F)c(O)c2F)c2cnc(N3CCN(C(=O)CN4CCOCC4)CC3)nc21",
    "Measured on": "Recombinant human HSD17B13 enzyme (Homo sapiens)",
    "pIC50": "6.00 to 7.00"
  },
  {
    "Molecule": "Cn1nc(-c2cc(C(F)(F)F)c(F)c(O)c2F)c2cnc(N3CCCC(c4ccncn4)C3)nc21 (stereo not drawn)",
    "Measured on": "Recombinant human HSD17B13 enzyme (Homo sapiens)",
    "pIC50": "> 7.00"
  },
  {
    "Molecule": "Cn1nc(-c2cc(O)c(F)c(C(F)(F)F)c2)c2ccc(C3=CCN(S(C)(=O)=O)CC3)cc21",
    "Measured on": "Recombinant human HSD17B13 enzyme (Homo sapiens)",
    "pIC50": "> 7.00"
  },
  {
    "Molecule": "Cn1nc(-c2cc(C(F)(F)F)c(F)c(O)c2F)c2cnc(N3CCOCC3=O)cc21",
    "Measured on": "Recombinant human HSD17B13 enzyme (Homo sapiens)",
    "pIC50": "6.00 to 7.00"
  },
  {
    "Molecule": "Cn1nc(-c2cc(C(F)(F)F)c(F)c(O)c2F)c2cnc(N3CCOC4(CC4)C3)nc21",
    "Measured on": "Recombinant human HSD17B13 enzyme (Homo sapiens)",
    "pIC50": "> 7.00"
  }
]

Please fill in: pIC50 reported for Cn1nc(-c2cc(C(F)(F)F)c(F)c(O)c2F)c2cnc(N3CCS(=O)(=O)CC34CCC4)cc21 = > 7.00

Please fill in: pIC50 reported for Cn1nc(-c2cc(C(F)(F)F)c(F)c(O)c2F)c2cnc(N3CCOCC3)nc21 = > 7.00

Please fill in: pIC50 reported for Cn1nc(-c2cc(C(F)(F)F)c(F)c(O)c2F)c2cnc(N3CCOC(c4cc[nH]n4)C3)nc21 (stereo not drawn) = > 7.00

Please fill in: pIC50 reported for CCN1CCN(c2ncc3c(-c4cc(C(F)(F)F)c(F)c(O)c4F)nn(C)c3n2)CC1=O = 6.00 to 7.00

Please fill in: pIC50 reported for Cn1nc(-c2cc(C(F)(F)F)c(F)c(O)c2F)c2cnc(N3CCOC(c4ccccc4)C3)nc21 (stereo not drawn) = > 7.00

Please fill in: pIC50 reported for CS(=O)(=O)N1CCN(c2ccc3oc(-c4cc(O)cc(C(F)(F)F)c4)nc3c2)CC1 = 6.00 to 7.00
